Below, each entry is listed alongside its reported pKi.
Biological target: vanilloid receptor (VR1) (Homo sapiens)
Construct: expressed in transfected cells; host or cells: CHO K1 cells (ECACC), stably transfected
Sequence (Q8NER1 whole entry): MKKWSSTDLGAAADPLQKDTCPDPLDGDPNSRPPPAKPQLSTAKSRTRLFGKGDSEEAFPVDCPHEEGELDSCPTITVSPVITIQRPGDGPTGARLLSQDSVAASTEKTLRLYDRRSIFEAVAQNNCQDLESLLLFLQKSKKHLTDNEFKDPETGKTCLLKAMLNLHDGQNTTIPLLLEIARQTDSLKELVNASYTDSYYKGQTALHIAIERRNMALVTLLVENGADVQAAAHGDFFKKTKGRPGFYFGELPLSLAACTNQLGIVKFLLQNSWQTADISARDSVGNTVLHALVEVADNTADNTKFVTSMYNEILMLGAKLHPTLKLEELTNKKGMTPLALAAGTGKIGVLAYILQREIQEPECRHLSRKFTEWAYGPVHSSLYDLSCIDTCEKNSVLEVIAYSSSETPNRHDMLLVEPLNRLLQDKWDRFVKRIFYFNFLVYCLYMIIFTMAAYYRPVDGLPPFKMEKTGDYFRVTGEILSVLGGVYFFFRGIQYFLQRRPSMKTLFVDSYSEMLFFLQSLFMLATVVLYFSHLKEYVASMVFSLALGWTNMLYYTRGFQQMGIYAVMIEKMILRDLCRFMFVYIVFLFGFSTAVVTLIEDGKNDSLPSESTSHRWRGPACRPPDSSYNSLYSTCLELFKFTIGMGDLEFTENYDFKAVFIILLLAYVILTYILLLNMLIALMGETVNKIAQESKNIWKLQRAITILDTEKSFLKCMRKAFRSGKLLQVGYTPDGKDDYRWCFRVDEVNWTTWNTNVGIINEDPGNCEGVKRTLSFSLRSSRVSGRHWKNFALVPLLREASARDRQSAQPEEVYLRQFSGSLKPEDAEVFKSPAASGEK
Assay: FLIPR Ca2+ influx assay on CHO K1 cells transfected with the VR1 gene (pharmacological method II)
Format: cell-based
Conditions: table 4; capsaicin; read-out: Ki (human) Cap.
Entry type: numeric. Quantity: pKi, the -log10 of concentration in molar units.

| COMPOUND | STUDY TARGET | RESULT VALUE |
| --- | --- | --- |
| CC(C(=O)NCc1ccc(C(F)(F)F)nc1-c1ccc(Cl)c(Cl)c1)c1ccc(NS(C)(=O)=O)c(F)c1 (stereo not shown) | vanilloid receptor (VR1) (Homo sapiens) | 9.05 |

Return pKi measured with vanilloid receptor (VR1) (Homo sapiens) given this compound: CC(C(=O)NCc1ccc(C(F)(F)F)nc1OC1CCN(C(=O)OC(C)(C)C)CC1)c1ccc(NS(C)(=O)=O)c(F)c1 (stereo not shown)
8.89

Tell me reported pKi for CCC/C=C/c1nc(C(F)(F)F)ccc1CNC(=O)C(C)c1ccc(NS(C)(=O)=O)c(F)c1 (stereo not shown) , tested with vanilloid receptor (VR1) (Homo sapiens).
9.05

What pKi appears in the records for this compound with vanilloid receptor (VR1) (Homo sapiens)? CC(C(=O)NCc1ccc(C(F)(F)F)nc1OC1CCC(C(F)(F)F)CC1)c1ccc(NS(C)(=O)=O)c(F)c1 (stereo not shown) [Example 340]
8.92

Form field - read-out: pKi; system: vanilloid receptor (VR1) (Homo sapiens); submitted item: CC(C(=O)NCc1ccc(C(F)(F)F)nc1N1CC=C(c2ccccc2)CC1)c1ccc(NS(C)(=O)=O)c(F)c1 (stereo not shown)
8.77

Requested read-out pKi, target or system vanilloid receptor (VR1) (Homo sapiens), entry CC(C)CCOc1nc(C(F)(F)F)ccc1CNC(=O)C(C)c1ccc(NS(C)(=O)=O)c(F)c1 (stereo not shown)
9.10

Checklist item: pKi tested on vanilloid receptor (VR1) (Homo sapiens), entry CC(C(=O)NCc1ccc(C(F)(F)Cl)nc1N1CCN(c2ccccc2)CC1)c1ccc(NS(C)(=O)=O)c(F)c1 (stereo not shown) , value?
9.10
